Data credit: the supplement of paper PMC10567573

Test: protein stability index of a GFP-peptide fusion (GPS, HEK-293T) (PSI 1-6); higher = more stable;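 note: 24-mer peptide tiles fused after GFP, lentivirally expressed, FACS-sorted into six equal bins by GFP/DsRed ratio, decoded by Illumina sequencing, PSI is the read-weighted mean bin number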
Conditions: treatment: DMSO; c terminus: a fixed tail appended
Lab note: compare protein stability index against 3. Equal or greater, write yes. Smaller, write no.

Entry DKERAVLLQRRKRENMSDGDTSAT [KMT2E] : is its protein stability index no less than 3? yes

Entry FPSTSYNARLQAMWGQSLLPPVST [TNXB] : is its protein stability index no less than 3? no

Entry AWTLINLSFAAKQRELHSHVTNAM [DHCR7] : is its protein stability index no less than 3? yes

Entry TGITLLRVKFKSQQHRQGRSHHLE [PTGFR] : is its protein stability index no less than 3? no

Entry CGKSFTQSSGLIRHQRIHTGERPY [ZSCAN9] : is its protein stability index no less than 3? no

Entry NIQIIEYEKKQTLGQNDTGFSCDG [BTBD1] : is its protein stability index no less than 3? yes

Entry VELPIVDSLHPRPPYLPLAVPEDL [FUT8] : is its protein stability index no less than 3? yes

Entry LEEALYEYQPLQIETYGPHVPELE [MNAT1] : is its protein stability index no less than 3? yes

Entry DKPLMPYMRYSRKVWDQVKASNPD [SMARCE1] : is its protein stability index no less than 3? yes

Entry PYGPPPDAVQTSLMDEGASSEKKR [RBBP5] : is its protein stability index no less than 3? yes

Entry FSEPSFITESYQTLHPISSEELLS [ETS1] : is its protein stability index no less than 3? no

Entry ISQMDSDQFIPIWTVANMEEIKKL [LARP4] : is its protein stability index no less than 3? yes

Entry DLEELSLGPRDAGTRGRLESAQAT [ARFIP2] : is its protein stability index no less than 3? yes

###

Assay: protein stability index of a GFP-peptide fusion (GPS, HEK-293T) (PSI 1-6); higher = more stable
Settings: treatment: DMSO; c terminus: a fixed tail appended
readout.label: protein stability index
Just the number, please, no unit after it.

// query protein stability index value for entry GWSTPPKCRSTISAEKCGPPPPID [CFHR2] 3.72

// query protein stability index value for entry LDQLRFPNGVQLSPAEDFVLVAET [APMAP] 3.09

// query protein stability index value for entry QGPQGREGLAFLVSCPEGRADCAS [PWWP2B] 3.77

// query protein stability index value for entry NHAPLREQGAIPRLVQLLVRAHQD [CTNNB1] 2.91

// query protein stability index value for entry PLCMAVLTTASIIQLGVTPPGYSA [SLC6A17] 3.14

// query protein stability index value for entry DLALDLGPQSRELTLKVLRSSSCG [C2CD2L] 3.28

// query protein stability index value for entry LKLYEQWKNFDERKEMATILSKMP [CCNC] 2.61

// query protein stability index value for entry KWDGKSTTIKRKREDDKLVVECVM [FABP4] 2.82

// query protein stability index value for entry LIPVPMATQIQQLLQDKQFELALQ [VPS39] 2.31

// query protein stability index value for entry AEFQLVRDVVLCSLLNFLPEGVNK [TENT5C] 2.37

// query protein stability index value for entry LKEGVRLDRVRGGRQKYKRRPEVD [ESRRA] 4.19

// query protein stability index value for entry LLLILVSYVHILSAILQFPSTLGR [OR10K2] 2.98

// query protein stability index value for entry MPEERASKYENYFSASERLSLKRE [HESX1] 4.41

###

Assay: protein stability index of a GFP-peptide fusion (GPS, HEK-293T) (PSI 1-6); higher = more stable
Conditions: treatment: DMSO; c terminus: a fixed tail appended
readout.label: protein stability index
Just the number, please, no unit after it.

// query protein stability index value for entry FQSISLRKIQFNFPYFRSDRDKRD [CLCN6] 2.3

// query protein stability index value for entry GSRSNGMWAHSMTVQDYQDLIDRG [ATE1] 3.92

// query protein stability index value for entry EHGATLAVIDSEKDMNFLKRYAGR [CD69] 3.84

// query protein stability index value for entry VNYTQGLWEKVMPSRYAAIYNGGV [SLC19A2] 2.33

// query protein stability index value for entry GASFTQKGNLLRHIKLHSGEKPFK [IKZF1] 3.77

// query protein stability index value for entry ASNWSTTGFGQGQGYTINVPWNQV [HDAC6] 2.14

// query protein stability index value for entry TSIVYATEKKQTKVEFPEARIYEE [KCTD10] 4.5

// query protein stability index value for entry FTFPGMSLDKRQGEGLRIYWGSPE [TPRG1] 2.25

// query protein stability index value for entry VMYTIHMGCHGFRDPFECNMCGYH [IKZF1] 2

// query protein stability index value for entry NAESSKTWLKGKFTELRLLLDEEE [TRIM14] 4.14

// query protein stability index value for entry PSAELVQTRMAVSLTAAETLALQG [ZNF232] 3.45

// query protein stability index value for entry FLHPDLGVGGAERLVLDAALALQA [ALG2] 2.32

// query protein stability index value for entry YVKFDAVSGDYYPIIYFNDYWNLQ [CLPTM1] 2.78

// query protein stability index value for entry KEDGEPSWREAKVSWFGSPTTSFL [PWWP2B] 2.95

// query protein stability index value for entry GAHKDCQVAPLTHVFQRQKSELSD [TRIM55] 4.73

// query protein stability index value for entry PEADCIPKEQLSTSFQWVTKWVDY [PLK2] 3.01

// query protein stability index value for entry RAQEREQIKALNNKFASFIDKVRF [KRT71] 2.1

// query protein stability index value for entry PTEGAGSPAKASQASKLRASKEEK [FBF1] 5.41

// query protein stability index value for entry FFEKPDYDYLRKLFTDLFDRKGYM [CSNK1G3] 2.05

// query protein stability index value for entry VLLGWTLHYFPFFLMGRVLYFHHY [POMT2] 2.96

// query protein stability index value for entry MELGGHWDMNSAPRLVSETAERKQ [MFSD9] 4.98

// query protein stability index value for entry LVWLVRELVKSGVLGADGVCMTFM [INTS3] 2.17

// query protein stability index value for entry SGADTAKCGIHSMFPLHLAALNAH [ANKRD44] 2.07

// query protein stability index value for entry PGARTRAGAARVARWRRLRLQQLR [FBXO33] 4.12

// query protein stability index value for entry NKRCKDKKKSILMKQLQQQQHSDK [ISL2] 4.45

// query protein stability index value for entry VNRFGTYPALASKNGKKWEILNFN [ACSBG2] 2.81

// query protein stability index value for entry PWDESGSGCLPPEPLFEAGDATLA [FOXJ1] 5.07

###

Assay: protein stability index of a GFP-peptide fusion (GPS, HEK-293T) (PSI 1-6); higher = more stable
Settings: treatment: DMSO; c terminus: a fixed tail appended
readout.label: protein stability index
Just the number, please, no unit after it.

// query protein stability index value for entry SHLQTNYSKTFQRSNVDFLETPEL [NECAB1] 3.47

// query protein stability index value for entry LKLARKAYHDPMLKLSIMSEEELT [NET1] 3.06

// query protein stability index value for entry FDRKKKSISLMYGGSKRKSSFFSS [SLA] 2.53

// query protein stability index value for entry TPMNHQKAVNDETCKASHITSSVF [FBXO34] 3.75

// query protein stability index value for entry DSVPFHLGWNSTERSLRLQARYHD [MYORG] 3.59

// query protein stability index value for entry LEENPYDLDAWSILIREAQNQPID [CSTF3] 3.74

// query protein stability index value for entry YEADCLAAAYGGKAAPAAPPAARP [CEBPB] 4.49

// query protein stability index value for entry TPLLAASVTGHTNIVEYLIQEQPG [FEM1A] 3.39

// query protein stability index value for entry YSCACLASGSVLRLVDAVLGAEIR [HDAC6] 3

// query protein stability index value for entry IARVADGLPLAASMQEDEQSGRDL [SEC22B] 5.24

// query protein stability index value for entry FIEGYCTPEEVIWEALNMMGLYDG [MAGEA10] 2.48

// query protein stability index value for entry EAASSSSTLVEVTLGEVPAAESPD [MAGEA3] 5.41

// query protein stability index value for entry PKPSVLFLHPDLGVGGAERLVLDA [ALG2] 3.23

// query protein stability index value for entry KGNTALHDCAESGSLDIMKMLLMY [FEM1C] 1.97

// query protein stability index value for entry KQKGSEENLDEAREQKEKSPPDQP [ADD1] 5.68

// query protein stability index value for entry ILSKVQKNHVGKPLLKMDLNSEQA [FAM98B] 3.62

// query protein stability index value for entry QLSTPHAVGVLLLGLVGYYIFRVA [DHCR7] 2.91

// query protein stability index value for entry IVRFSGQSRGVPAVSESYSAPGAC [FBXO34] 3.15

// query protein stability index value for entry ILNFNDLMSSAVPMTPEDPSFWDC [AASDHPPT] 2.71

// query protein stability index value for entry RSMVFKDVLLLGNDYIVPRHCPEL [HNF4A] 2.29

// query protein stability index value for entry PLSAVYRICLGKFTFPGMSLDKRQ [TPRG1] 2.23

// query protein stability index value for entry PVYRRDCHEEVYAGSHQYPGRGVY [ACBD3] 2.89

// query protein stability index value for entry NSQVHRETEDVDYGETDFHKQDGK [TMEM40] 5.54

// query protein stability index value for entry AETAGAIMAFFLCLGLALGAVFSF [SLC29A1] 3.35

// query protein stability index value for entry RHLERKAWVANFERPRMNANSLLA [CRY1] 2.49

// query protein stability index value for entry QVATSPDFDGKLKDIAGEFKEQLQ [ATL3] 4.34

// query protein stability index value for entry QRQAPGPARDYSQYYRTIEELQNK [KRT17] 4.07
